Measured EC50 accompanies every entry in the list below.
target: T1, human PD1 expressed on a cell surface (human, UniProt Q15116 25-288); experiment: flow cytometry on OKT3-activated human T cells, CD4+ cells
T1 construct: whole, on cells; also called hPD1
T1 sequence (Q15116 25-288): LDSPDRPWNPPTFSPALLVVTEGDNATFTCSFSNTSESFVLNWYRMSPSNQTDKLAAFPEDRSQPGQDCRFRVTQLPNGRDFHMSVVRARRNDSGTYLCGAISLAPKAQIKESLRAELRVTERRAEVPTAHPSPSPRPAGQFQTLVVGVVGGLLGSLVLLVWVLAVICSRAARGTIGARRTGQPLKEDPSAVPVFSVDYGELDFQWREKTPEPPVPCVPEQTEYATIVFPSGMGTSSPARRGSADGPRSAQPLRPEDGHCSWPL

binder: anti-hPD1 antibody #4 (antibody, human IgG4, V domains shown, also called Anti-hPD1 #4; Anti-PD1 #4) VH: QVQLVQSGAEVKKPGASVKVSCKASGYTFTNYWMHWVRQAPGQGLEWMGEIDPFDSYTNYNQKFKGRVTMTRDTSTSTVYMELSSLTSEDTAVYYCARPGYTYGGMDFWGQGTLVTVSS VL: DIQMTQSPSSLSASVGDRVTITCKSSQSLLNSGNQKNYLAWYQQKPGKPPKLLIYGASTRDSGVPSRFSGSGSGTDFTLTISSLQPEDVATYYCQNDHYYPYTFGGGTKVEIK
EC50 [nM]: 0.672
//
binder: anti-hPD1 antibody #9 (antibody, human IgG4, V domains shown, also called Anti-hPD1 #9; Anti-PD1 #9) VH: QVQLVQSGAEVKKPGASVKVSCKASGYTFTSYWMHWVRQAPGQGLEWMGEIDPYDSYTNYNQKFKGRVTMTIDKSTSTVYMELSSLTSEDTAVYYCARPGFTYGGMDFWGQGTLVTVSS VL: DIVMTQSPDSLAVSLGERATINCRSSQSLLISGNQKNYLAWYQQKPGQPPKLLIYGASTRDSGVPDRFSGSGSGTDFTLTISSLQAEDVAVYYCQNNHYYPYTFGGGTKVEIK
EC50 [nM]: 1.01
//
binder: anti-hPD1 antibody #2 (antibody, human IgG4, V domains shown, also called Anti-hPD1 #2; Anti-PD1 #2) VH: QVQLVQSGAEVKKPGASVKVSCKASGYTFTSYWMHWVRQAPGQGLEWMGEIDPYDSYTNYNQKFKGRVTMTVDKSTSTVYMELSSLRSEDTAVYYCARPGNTYGGMDYWGQGTLVTVSS VL: DIQMTQSPSSLSASVGDRVTITCRSSQSLFNSGNQKNYLAWYQQKPGKVPKLLIYGASTRDSGVPYRFSGSGSGTDFTLTISSLQPEDVATYYCQNDHYYPYTFGGGTKVEIK
EC50 [nM]: 0.398
//
binder: anti-hPD1 antibody #13 (antibody, human IgG4, V domains shown, also called Anti-hPD1 #13) VH: QVQLVQSGAEVKKPGASVKVSCKASGYTFTSYWIHWVRQAPGQGLEWMGEIDPYDSYTNYNQKFKGRVTMTVDKSTNTVYMELSSLTSEDTAVYYCARPGLTYGGMDFWGQGTLVTVSS VL: DIQMTQSPSSLSASVGDRVTITCKSSQSLLNSGNQKNYLAWYQQKPGKPPKLLIYGASTRDSGVPAKFSGSGSGTDFTLTISSLQPEDVATYYCQNDHYYPYTFGGGTKVEIK
EC50 [nM]: 0.998
//
binder: anti-hPD1 antibody #3 (antibody, human IgG4, V domains shown, also called Anti-hPD1 #3; Anti-PD1 #3) VH: QVQLVQSGAEVKKPGASVKVSCKASSYTFTNYWMHWVRQAPGQGLEWMGEIDPYDSYTNYNQKFKGRVTMTIDTSTSTVYMELSSLTSEDTAVYYCARPGFTYGGMDFWGQGTLVTVSS VL: DIQMTQSPSSLSASVGDRVTITCKSSQSLFNSGNQKNYLAWYQQKPGKVPKLLIYGASTRESGVPARFSGSGSGTDFTLTISSLQAEDVATYYCQNDHYYPYTFGGGTKVEIK
EC50 [nM]: 0.536
